- Tested on: Streptococcus pneumoniae
- Protocol text: Bacteriostatic activity against […] Streptococcus pneumoniae ATCC 49619 after 20 to 24 hrs by two-fold microbroth dilution method
- Format: functional
Reported property: MIC (µg/mL)
Return type: number; implicit unit µg/mL.

Query: Form field: reported MIC of CC[C@H]1OC(=O)[C@H](C)[C@H](OC(=O)Cc2ccccn2)[C@H](C)[C@@H](O[C@@H]2O[C@H](C)C[C@H](N(C)C)[C@H]2O)[C@@](C)(OC/C=C/c2cnc3ccccc3c2)C[C@@H](C)/C(=N\O)[C@H](C)[C@H]2OC(=O)O[C@@]21C
Reply: 4

Query: Next record, please: CC[C@H]1OC(=O)[C@H](C)[C@@H](OC(=O)Cc2ccccn2)[C@H](C)[C@@H](O[C@@H]2O[C@H](C)C[C@H](N(C)C)[C@H]2O)[C@](C)(OC)C[C@@H](C)/C(=N\OC)[C@H](C)[C@H]2OC(=O)O[C@@]21C
Reply: 0.125

Query: Next record, please: CC[C@H]1OC(=O)[C@H](C)[C@@H](OC(=O)Cc2ccccn2)[C@H](C)[C@@H](O[C@@H]2O[C@H](C)C[C@H](N(C)C)[C@H]2O)[C@](C)(OC)C[C@@H](C)/C(=N\OC/C=C/c2cccnc2)[C@H](C)[C@H]2OC(=O)O[C@@]21C
Reply: 16

###

- System: Haemophilus influenzae
- Protocol text: Bacteriostatic activity against azithromycin-susceptible/ampicillin-resistant Haemophilus influenzae 11P307 after 20 to 24 hrs by two-fold microbroth dilution method
- Type: functional
Reported property: MIC

Query: Form field: reported MIC of C#CCN(C)[C@H]1C[C@@H](C)O[C@@H](O[C@@H]2[C@@H](C)C(=O)[C@@H](C)C(=O)O[C@H](CC)[C@@]3(C)OC(=O)O[C@@H]3[C@@H](C)/C(=N/OC/C=C/c3cnc4ccccc4c3)[C@H](C)C[C@@]2(C)OC)[C@@H]1O
Reply: > 256 µg/mL

Query: Next record, please: CC[C@H]1OC(=O)[C@@](C)(F)C(=O)[C@H](C)[C@@H](O[C@@H]2O[C@H](C)C[C@H](N(C)C)[C@H]2O)[C@](C)(OC)C[C@@H](C)/C(=N\OC/C=C/c2ccc3ncccc3c2)[C@H](C)[C@H]2OC(=O)O[C@@]21C
Reply: 8 µg/mL

Could you now look at the following compound, please?
Query: Form field: reported MIC of CC[C@H]1OC(=O)[C@H](C)C(=O)[C@H](C)[C@@H](O[C@@H]2O[C@H](C)C[C@H](N(C)C)[C@H]2O)[C@](C)(OC)C[C@@H](C)C(=O)[C@H](C)[C@H]2N(CCCCn3cnc(-c4cccnc4)c3)C(=O)O[C@]12C
Reply: 1 to 4 µg/mL

###

- System: Streptococcus pneumoniae
- Protocol text: Bacteriostatic activity against […] Streptococcus pneumoniae ATCC 49619 after 20 to 24 hrs by two-fold microbroth dilution method
- Format: functional
Reported property: MIC

Below: 4 compounds and their reported MIC.
Query: Form field: reported MIC of C#CCN(C)[C@H]1C[C@@H](C)O[C@@H](O[C@@H]2[C@@H](C)C(=O)[C@@H](C)C(=O)O[C@H](CC)[C@@]3(C)OC(=O)O[C@@H]3[C@@H](C)/C(=N/OC/C=C/c3cnc4ccccc4c3)[C@H](C)C[C@@]2(C)OC)[C@@H]1O
Reply: 0.25 µg/mL

Query: Next record, please: CC[C@H]1OC(=O)[C@H](C)C(=O)[C@H](C)[C@@H](O[C@@H]2O[C@H](C)C[C@H](N(C)C)[C@H]2O)[C@](C)(OC)C[C@@H](C)C(=O)[C@H](C)[C@H]2N(CCCCn3cnc(-c4cccnc4)c3)C(=O)O[C@]12C
Reply: 0.016 to 0.031 µg/mL

Query: Next record, please: CC[C@H]1OC(=O)[C@@](C)(F)C(=O)[C@H](C)[C@@H](O[C@@H]2O[C@H](C)C[C@H](N(C)C)[C@H]2O)[C@](C)(OC)C[C@@H](C)/C(=N\OCC#Cc2cncc3ccccc23)[C@H](C)[C@H]2OC(=O)O[C@@]21C
Reply: ≤ 0.008 µg/mL

Query: Next record, please: CC[C@H]1OC(=O)[C@H](C)[C@@H](O[C@H]2C[C@@](C)(OC)[C@@H](O)[C@H](C)O2)[C@H](C)[C@@H](O[C@@H]2O[C@H](C)C[C@H](N(C)C)[C@H]2O)[C@](C)(OC)C[C@@H](C)C(=O)[C@H](C)[C@@H](O)[C@]1(C)O
Reply: 0.031 to 0.062 µg/mL

Could you now look at the following compound, please?
Query: Form field: reported MIC of CC[C@H]1OC(=O)[C@H](C)C(=O)[C@H](C)[C@@H](O[C@@H]2O[C@H](C)C[C@H](N(C)C)[C@H]2O)[C@](C)(OC)C[C@@H](C)/C(=N\OC/C=C/c2cnc3ccccc3c2)[C@H](C)[C@H]2OC(=O)O[C@@]21C
Reply: ≤ 0.008 µg/mL

Data provenance: ChEMBL document CHEMBL4004878
